Biological target: SMARCA2 (Homo sapiens)
Experiment: HiBit assay in engineered HT1080 CRISPR knock-in cell, 6 hrs (B series), SMARCA2
Format: cell-based
Conditions: HT-1080, HT1080 CRISPR knock-in cells, 6 hrs incubation; read-out: SMARC A2 HT1080 HiBit Dmax (%)
OBSERVED_PROPERTY: Dmax

Below: 3 compounds and their reported Dmax.
INSERT INTO results (smiles_notation, observed_property, observed_result) VALUES
  ('C#Cc1ccc([C@H](CN2CCOCC2)NC(=O)[C@@H]2C[C@@H](O)CN2C(=O)[C@@H](n2cc([C@H]3CC[C@H](CN4CCC(c5ccc6c(c5)-n5c(nc(=O)c7c(Cl)cccc75)C6(C)C)CC4)CC3)nn2)C(C)(C)C)cc1', 'Dmax', '> 90%'),
  ('Cc1ncsc1-c1ccc([C@H](C)NC(=O)[C@@H]2C[C@@H](O)CN2C(=O)[C@@H](c2cc(OCCCCN3CCC(c4ccc5c(c4)C(C)(C)c4nc(=O)c6c(Cl)cccc6n4-5)CC3)no2)C(C)C)cc1', 'Dmax', '> 90%'),
  ('Cc1ncsc1-c1ccc([C@H](C)NC(=O)[C@@H]2C[C@@H](O)CN2C(=O)[C@@H](NC(=O)C23CCC(CN4CCC(c5ccc6c(c5)C(C)(C)c5nc(=O)c7c(Cl)cccc7n5-6)CC4)(CC2)C3)C(C)(C)C)cc1', 'Dmax', '> 90%');

Short answer for Cc1ncsc1-c1ccc([C@H](CC(=O)NCCCN2CCC(c3ccc4c(c3)-n3c(nc(=O)c5c(Cl)cccc53)C4(C)C)CC2)NC(=O)[C@@H]2C[C@@H](O)CN2C(=O)[C@@H](NC(=O)C2(F)CC2)C(C)(C)C)cc1 : Dmax was < 50%

* * *

Molecular target: SMARCA4 (Homo sapiens)
Assay: HiBiT assay for protein degradation, Hela SMARCA4-HiBiT cells (A series)
Type: cell-based
Set-up: fuse HiBiT to the carboxy terminus of SMARCA2 (Promega CS302365) or SMARCA4 (Promega CS3023225); host or cells: HeLa (CRISPR/Cas9 HiBiT knock-in)
Conditions: Hela SMARCA4-HiBiT cells, 24 hours treatment
OBSERVED_PROPERTY: SMARC A4 Hela HiBit Dmax(%)

INSERT INTO results (smiles_notation, observed_result) VALUES
  ('Cc1ncsc1-c1ccc([C@H](CN2CCOCC2)NC(=O)[C@@H]2C[C@@H](O)CN2C(=O)[C@@H](NC(=O)C23CCC(CN4CCC(c5ccc6c(c5)-n5c(nc(=O)c7c(Br)cccc75)C65CCCCC5)CC4)(CC2)CC3)C(C)(C)C)cc1', 'D (D (<50% degradation))'),
  ('Cc1ncsc1-c1ccc([C@H](C)NC(=O)[C@@H]2C[C@@H](O)CN2C(=O)[C@@H](n2cc(-c3ccc(CN4CCC(c5ccc6c(c5)-n5c(nc(=O)c7c(Br)cccc75)C65CCCCC5)CC4)nc3)nn2)C(C)(C)C)cc1', 'D (D (<50% degradation))'),
  ('CC(C)(C)[C@H](NC(=O)C1(F)CC1)C(=O)N1C[C@H](O)C[C@H]1C(=O)N[C@@H](CCCCCN1CCC(c2ccc3c(c2)-n2c(nc(=O)c4c(Br)cccc42)C32CCCCC2)CC1)c1ccc(Cl)cc1', 'D (D (<50% degradation))');

* * *

Below, each entry is listed with its recorded DC50.
Molecular target: SMARCA4 (Homo sapiens, UniProt P51532)
Sequence (P51532 whole entry): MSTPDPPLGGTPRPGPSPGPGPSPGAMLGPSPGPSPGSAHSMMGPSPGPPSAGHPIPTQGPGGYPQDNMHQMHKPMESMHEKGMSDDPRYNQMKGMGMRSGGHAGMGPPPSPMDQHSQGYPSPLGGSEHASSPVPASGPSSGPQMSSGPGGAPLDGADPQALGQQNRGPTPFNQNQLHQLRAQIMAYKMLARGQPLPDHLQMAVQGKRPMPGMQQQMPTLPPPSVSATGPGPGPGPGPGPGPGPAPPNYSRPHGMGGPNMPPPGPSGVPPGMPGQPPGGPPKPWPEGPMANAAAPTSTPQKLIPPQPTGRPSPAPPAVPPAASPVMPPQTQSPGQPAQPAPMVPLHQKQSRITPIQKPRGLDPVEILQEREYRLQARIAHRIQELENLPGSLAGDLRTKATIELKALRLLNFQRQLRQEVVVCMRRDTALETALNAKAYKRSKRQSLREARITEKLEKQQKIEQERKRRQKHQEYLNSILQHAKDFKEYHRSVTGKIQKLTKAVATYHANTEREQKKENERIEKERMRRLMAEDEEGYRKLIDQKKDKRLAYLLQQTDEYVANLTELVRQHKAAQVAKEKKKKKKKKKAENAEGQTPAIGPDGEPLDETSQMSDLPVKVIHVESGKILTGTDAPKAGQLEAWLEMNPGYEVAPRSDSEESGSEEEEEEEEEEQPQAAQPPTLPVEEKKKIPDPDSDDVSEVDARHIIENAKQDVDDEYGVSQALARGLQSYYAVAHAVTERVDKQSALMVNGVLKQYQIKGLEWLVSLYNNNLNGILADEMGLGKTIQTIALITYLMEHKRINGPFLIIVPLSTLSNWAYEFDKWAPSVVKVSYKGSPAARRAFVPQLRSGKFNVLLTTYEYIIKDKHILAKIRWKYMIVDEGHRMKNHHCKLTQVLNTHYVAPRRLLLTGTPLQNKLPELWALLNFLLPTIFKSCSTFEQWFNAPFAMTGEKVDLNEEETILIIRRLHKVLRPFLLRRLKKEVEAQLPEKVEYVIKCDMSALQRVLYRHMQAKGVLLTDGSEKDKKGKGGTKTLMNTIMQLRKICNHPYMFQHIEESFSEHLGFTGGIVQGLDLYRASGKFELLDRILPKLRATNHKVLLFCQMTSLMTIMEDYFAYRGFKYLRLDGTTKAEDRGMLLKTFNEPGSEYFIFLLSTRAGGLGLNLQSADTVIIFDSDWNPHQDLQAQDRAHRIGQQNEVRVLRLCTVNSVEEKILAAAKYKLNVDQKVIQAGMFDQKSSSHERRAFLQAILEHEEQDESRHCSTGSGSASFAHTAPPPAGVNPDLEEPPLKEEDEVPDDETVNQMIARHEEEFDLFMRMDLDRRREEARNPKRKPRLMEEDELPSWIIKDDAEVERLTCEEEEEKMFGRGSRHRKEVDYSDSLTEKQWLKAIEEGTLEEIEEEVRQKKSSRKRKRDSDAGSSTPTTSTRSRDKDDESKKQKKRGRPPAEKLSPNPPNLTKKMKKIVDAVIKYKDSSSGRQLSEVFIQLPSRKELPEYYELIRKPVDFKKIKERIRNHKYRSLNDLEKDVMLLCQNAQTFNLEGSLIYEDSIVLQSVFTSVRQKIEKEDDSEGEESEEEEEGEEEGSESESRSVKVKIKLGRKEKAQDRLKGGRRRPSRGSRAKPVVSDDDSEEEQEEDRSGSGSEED
Experiment: HiBiT assay for protein degradation, Hela SMARCA4-HiBiT cells (A series)
Format: cell-based
Set-up: fuse HiBiT to the carboxy terminus of SMARCA2 (Promega CS302365) or SMARCA4 (Promega CS3023225); host or cells: HeLa (CRISPR/Cas9 HiBiT knock-in)
Details: Hela SMARCA4-HiBiT cells, 24 hours treatment; read-out: SMARC A4 Hela HiBit DC50

INSERT INTO measurements (smiles_notation, observed_result) VALUES
  ('CC(=O)N1CCC([C@@H](C(=O)N2C[C@H](O)C[C@H]2C(=O)N[C@@H](C)c2ccc(-c3scnc3C)cc2)n2cc([C@H]3CC[C@H](CN4CCC(c5ccc6c(c5)-n5c(nc(=O)c7c(Cl)cccc75)C65CCCCC5)CC4)CC3)nn2)CC1', '10 to 100 nM');

Short answer for Cc1ncsc1-c1ccc([C@H](C)NC(=O)[C@@H]2C[C@@H](O)CN2C(=O)[C@@H](n2cc([C@H]3CC[C@H](CN4CCC(c5cnc6c(c5)-n5c(nc(=O)c7c(Br)cccc75)C65CCCCC5)CC4)CC3)nn2)C(C)(C)C)cc1 : DC50 was > 1000 nM

Short answer for Cc1ncsc1-c1ccc([C@H](CN2CCC(F)(F)CC2)NC(=O)[C@@H]2C[C@@H](O)CN2C(=O)[C@@H](n2cc([C@H]3CC[C@H](CN4CCC(c5ccc6c(c5)-n5c(nc(=O)c7c(Cl)cccc75)C6(C)C)CC4)CC3)nn2)C(C)(C)C)cc1 : DC50 was > 1000 nM

Short answer for Cc1ncsc1-c1ccc([C@H](CN2CCOCC2)NC(=O)[C@@H]2C[C@@H](O)CN2C(=O)[C@@H](n2cc([C@H]3C[C@H](CN4CC5(CCC(c6ccc7c(c6)-n6c(nc(=O)c8c(Cl)cccc86)C76CCCCC6)CC5)C4)C3)nn2)C(C)(C)C)cc1 : DC50 was 10 to 100 nM

Short answer for Cc1ncsc1-c1ccc([C@H](CCCCCN2CCC(c3ccc4c(c3)-n3c(nc(=O)c5c(Br)cccc53)C43CCCCC3)CC2)NC(=O)[C@H]2C[C@H](O)CN2C(=O)[C@@H](n2cc(C3CC3)nn2)C(C)(C)C)cc1 : DC50 was < 100 nM

* * *

Target: SMARCA2 (Homo sapiens, UniProt P51531)
Sequence (P51531 whole entry): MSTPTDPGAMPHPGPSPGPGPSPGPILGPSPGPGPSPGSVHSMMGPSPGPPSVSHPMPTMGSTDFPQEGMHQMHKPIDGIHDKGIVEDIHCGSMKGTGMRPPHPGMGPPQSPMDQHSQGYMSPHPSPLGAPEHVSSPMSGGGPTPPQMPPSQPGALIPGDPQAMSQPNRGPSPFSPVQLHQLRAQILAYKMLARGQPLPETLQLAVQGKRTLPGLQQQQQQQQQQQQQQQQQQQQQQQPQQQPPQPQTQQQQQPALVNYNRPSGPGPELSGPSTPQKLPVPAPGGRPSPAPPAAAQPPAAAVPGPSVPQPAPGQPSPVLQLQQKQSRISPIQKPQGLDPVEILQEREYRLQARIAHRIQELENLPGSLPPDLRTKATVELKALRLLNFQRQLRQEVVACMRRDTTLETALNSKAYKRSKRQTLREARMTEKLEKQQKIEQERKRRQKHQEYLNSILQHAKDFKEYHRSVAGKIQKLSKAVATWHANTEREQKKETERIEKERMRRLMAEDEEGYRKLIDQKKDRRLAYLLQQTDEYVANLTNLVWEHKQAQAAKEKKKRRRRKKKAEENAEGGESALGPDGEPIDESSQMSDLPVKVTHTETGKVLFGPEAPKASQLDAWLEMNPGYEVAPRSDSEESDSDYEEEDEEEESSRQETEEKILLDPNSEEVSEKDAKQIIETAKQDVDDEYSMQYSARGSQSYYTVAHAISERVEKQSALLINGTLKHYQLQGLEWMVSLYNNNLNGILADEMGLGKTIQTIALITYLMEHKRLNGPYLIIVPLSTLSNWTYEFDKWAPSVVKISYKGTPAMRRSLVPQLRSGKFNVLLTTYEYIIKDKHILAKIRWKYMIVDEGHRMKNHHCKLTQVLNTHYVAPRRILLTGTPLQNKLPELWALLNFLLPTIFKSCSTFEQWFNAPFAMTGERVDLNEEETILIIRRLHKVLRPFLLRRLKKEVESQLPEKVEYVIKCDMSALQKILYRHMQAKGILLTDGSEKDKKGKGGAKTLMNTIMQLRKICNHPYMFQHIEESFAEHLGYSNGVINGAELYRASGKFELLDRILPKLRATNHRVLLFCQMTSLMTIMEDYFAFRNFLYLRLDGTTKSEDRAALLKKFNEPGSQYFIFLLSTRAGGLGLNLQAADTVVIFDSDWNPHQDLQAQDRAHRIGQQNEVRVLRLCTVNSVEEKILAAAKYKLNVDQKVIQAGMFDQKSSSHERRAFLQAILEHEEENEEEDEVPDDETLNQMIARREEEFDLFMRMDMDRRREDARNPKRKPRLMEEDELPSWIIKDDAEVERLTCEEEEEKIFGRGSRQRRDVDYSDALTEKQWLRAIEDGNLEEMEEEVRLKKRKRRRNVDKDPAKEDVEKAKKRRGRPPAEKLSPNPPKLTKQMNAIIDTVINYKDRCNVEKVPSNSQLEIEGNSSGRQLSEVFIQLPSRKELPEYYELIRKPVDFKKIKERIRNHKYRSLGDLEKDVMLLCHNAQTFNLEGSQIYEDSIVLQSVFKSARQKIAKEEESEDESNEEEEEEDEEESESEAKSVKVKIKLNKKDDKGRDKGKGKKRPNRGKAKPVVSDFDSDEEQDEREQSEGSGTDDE
Test: HiBiT assay for protein degradation, Hela SMARCA2-HiBiT cells (A series);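 note: 24 h compound treatment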
Assay type: cell-based
Design: Hela cells were genetically modified via CRISPR/Cas9 to fuse HiBiT to the carboxy terminus of SMARCA2; host or cells: HeLa (CRISPR/Cas9 HiBiT knock-in)
Conditions: Hela SMARCA2-HiBiT cells, 24 hours treatment; read-out: SMARC A2 Hela HiBit Dmax (%)
OBSERVED_PROPERTY: Dmax

Below: 3 molecules and their reported Dmax.
INSERT INTO measurements (smiles_notation, study_target, observed_property, observed_result) VALUES
  ('Cc1ncsc1-c1ccc([C@H](CN2CCC(C(F)(F)F)CC2)NC(=O)[C@@H]2C[C@@H](O)CN2C(=O)[C@@H](n2cc([C@H]3CC[C@H](CN4CCC(c5ccc6c(c5)-n5c(nc(=O)c7c(Cl)cccc75)C65CCCCC5)CC4)CC3)nn2)C(C)(C)C)cc1', 'SMARCA2 (Homo sapiens, UniProt P51531)', 'Dmax', '> 90%'),
  ('Cc1ncsc1-c1ccc([C@@H](NC(=O)[C@@H]2C[C@@H](O)CN2C(=O)[C@@H](n2cc(C3CC3)nn2)C(C)(C)C)C(=O)N2CCC(CN3CCC(c4ccc5c(c4)-n4c(nc(=O)c6c(Br)cccc64)C54CCCCC4)CC3)CC2)cc1', 'SMARCA2 (Homo sapiens, UniProt P51531)', 'Dmax', '> 90%'),
  ('Cc1ncsc1-c1ccc([C@H](CN2CCOCC2)NC(=O)[C@@H]2C[C@@H](O)CN2C(=O)[C@@H](n2cc([C@H]3CC[C@H](CN4CCC(c5ccc6c(n5)-n5c(nc(=O)c7c(Br)cccc75)C65CCCCC5)CC4)CC3)nn2)C(C)(C)C)cc1', 'SMARCA2 (Homo sapiens, UniProt P51531)', 'Dmax', '70 to 90%');

Short answer for Cc1ncsc1-c1ccc([C@@H](NC(=O)[C@@H]2C[C@@H](O)CN2C(=O)[C@@H](n2cc(C3CC3)nn2)C(C)(C)C)C(=O)N2CCC(c3ccc4c(c3)-n3c(nc(=O)c5c(Br)cccc53)C43CCCCC3)CC2)cc1 : Dmax was > 90%

* * *

Below, each entry is listed with its recorded DC50.
Target: SMARCA4 (Homo sapiens)
Test: HiBit assay in engineered HT1080 CRISPR knock-in cell, 6 hrs (B series), SMARCA4
Assay type: cell-based
Settings: HT1080 CRISPR knock-in cells, 6 hrs incubation; read-out: SMARC A4 HT1080 HiBit DC50

INSERT INTO results (smiles_notation, observed_property, observed_result) VALUES
  ('Cc1ncsc1-c1ccc2c(c1)CCC[C@H]2NC(=O)[C@@H]1C[C@@H](O)CN1C(=O)[C@@H](n1cc([C@H]2CC[C@H](CN3CCC(c4ccc5c(c4)-n4c(nc(=O)c6c(Cl)cccc64)C5(C)C)CC3)CC2)nn1)C(C)(C)C', 'DC50', '100 to 500 nM');

Item: Cc1ncsc1-c1ccc([C@H](C)NC(=O)[C@@H]2C[C@@H](O)CN2C(=O)[C@@H](n2cc([C@H]3CC[C@H](CN4CCN(c5ccc6c(c5)-n5c(nc(=O)c7c(Cl)cccc75)C6(C)C)CC4)CC3)nn2)C(C)(C)C)cc1 | System: SMARCA4 (Homo sapiens) | DC50: < 100 nM
